- Tested target: GDP-bound KRAS protein (aa 1-169), containing both G12C and C118A amino acid substitutions (Homo sapiens, UniProt P01116, C118A/G12C)
- Sequence (P01116 1-169 isoform P01116-2 G12C/C118A): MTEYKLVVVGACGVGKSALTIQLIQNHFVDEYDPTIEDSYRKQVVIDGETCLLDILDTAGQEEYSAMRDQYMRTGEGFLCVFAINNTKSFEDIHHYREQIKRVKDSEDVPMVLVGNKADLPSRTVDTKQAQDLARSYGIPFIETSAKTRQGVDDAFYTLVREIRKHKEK
- Assay text: Coupled nucleotide exchange assay (SOS-mediated, AlphaScreen)
- Type: biochemical
- Conditions: 5 min compound pre-incubation
Entries and their measured Coupled exchange IC50 (5 min) follow.

Consider the following illustrative entries.
C=CC(=O)N1CCN(c2nc(=O)n(-c3scnc3C(C)C)c3nc(-c4c(O)cccc4F)c(F)cc23)[C@@H](C)C1: 0.24 | nda μM
C=CC(=O)N1CCN(c2nc(=O)n(-c3c(O)cccc3C(C)C)c3nc(-c4ccccc4F)c(Cl)cc23)[C@@H](C)C1 (single isomer, unassigned) [Example 55-26-1]: 36.9 | nda μM

Proceed to the following item.
Tell me Coupled exchange IC50 (5 min) reported for C=CC(=O)N1CCN(c2nc(=O)n(-c3c(C)ccnc3CC)c3nc(-c4c(O)cccc4F)c(F)cc23)[C@@H](C)C1 [Example 57-1]
0.835 | nda μM
